Target: UniProtKB P04054
Assay: In vitro inhibition of human recombinant secretory Phospholipase A2 (group I).
pIC50: −log10 of the molar value.
property.label: pIC50

COc1ccc(Oc2ccc(OC)c(C(=O)Oc3c(C)c(C)c(C(=O)Oc4c(C)c(C)c(C(=O)O)c(OC)c4C)c(OC)c3C)c2)cc1C(=O)Oc1c(C)c(C)c(C(=O)Oc2c(C)c(C)c(C(=O)O)c(OC)c2C)c(OC)c1C: 5.19
COc1cc(OC)c(C(=O)Oc2c(C)c(C)c(C(=O)Oc3c(C)c(C)c(C(=O)O)c(OC)c3C)c(OC)c2C)cc1Oc1cc(C)c(OC)c(C(=O)Oc2c(C)c(C)c(C(=O)Oc3c(C)c(C)c(C(=O)O)c(OC)c3C)c(OC)c2C)c1: 5.18

* * *

Biological target: Phospholipase A2 (Homo sapiens, UniProt P04054)
Sequence (P04054 whole entry): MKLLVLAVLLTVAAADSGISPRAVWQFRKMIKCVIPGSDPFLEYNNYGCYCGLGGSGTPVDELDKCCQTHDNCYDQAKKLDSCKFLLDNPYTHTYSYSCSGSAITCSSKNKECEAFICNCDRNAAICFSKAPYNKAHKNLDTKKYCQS
Test: In vitro inhibition of human recombinant secretory Phospholipase A2 (group I).
property.label: IC50 (µM)

a = COc1c(C)c(OC(=O)c2c(C)c(C)c(OC(=O)c3c(C)cc(O)c(Cc4c(C)c(C(=O)Oc5c(C)c(C)c(C(=O)Oc6c(C)c(C)c(C(=O)O)c(OC)c6C)c(OC)c5C)c(O)c(C)c4O)c3O)c(C)c2OC)c(C)c(C)c1C(=O)O [THIELOCIN B3]
b = COc1c(C)c(OC(=O)c2c(C)c(C)c(OC(=O)c3cc(=O)cc(C(=O)Oc4c(C)c(C)c(C(=O)Oc5c(C)c(C)c(C(=O)O)c(OC)c5C)c(OC)c4C)o3)c(C)c2OC)c(C)c(C)c1C(=O)O
Please indicate which item has the smaller measured IC50: a versus b # reply format: chosen label
a

* * *

Target: Phospholipase A2, membrane associated (Homo sapiens, UniProt P14555)
Sequence (P14555 whole entry): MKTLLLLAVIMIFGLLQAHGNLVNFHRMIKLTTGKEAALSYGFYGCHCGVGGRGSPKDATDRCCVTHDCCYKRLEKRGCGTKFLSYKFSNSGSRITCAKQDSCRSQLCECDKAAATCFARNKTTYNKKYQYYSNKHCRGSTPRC
Assay: In vitro inhibition of human recombinant secretory Phospholipase A2 (group II).
pIC50: −log10 of the molar value.
property.label: pIC50

COc1ccc(Sc2ccc(OC)c(C(=O)Oc3c(C)c(C)c(C(=O)Oc4c(C)c(C)c(C(=O)O)c(OC)c4C)c(OC)c3C)c2)cc1C(=O)Oc1c(C)c(C)c(C(=O)Oc2c(C)c(C)c(C(=O)O)c(OC)c2C)c(OC)c1C: 6.89

P = COc1c(C)c(OC)c(C(=O)Oc2c(C)c(C)c(C(=O)O)c(OC)c2C)c(C)c1Cc1c(C)c(C(=O)Oc2c(C)c(C)c(C(=O)O)c(OC)c2C)c(OC)c(C)c1OC
Q = COc1ccc(Oc2ccc(OC)c(C(=O)Oc3c(C)c(C)c(C(=O)Oc4c(C)c(C)c(C(=O)O)c(OC)c4C)c(OC)c3C)c2)cc1C(=O)Oc1c(C)c(C)c(C(=O)Oc2c(C)c(C)c(C(=O)O)c(OC)c2C)c(OC)c1C
R = COc1ccc(Oc2ccc(OC)c(C(=O)Oc3c(C)c(C)c(C(=O)O)c(OC)c3C)c2)cc1C(=O)Oc1c(C)c(C)c(C(=O)O)c(OC)c1C
S = COc1c(C)c(OC(=O)c2c(C)c(C)c(OC(=O)CCC(=O)Oc3c(C)c(C)c(C(=O)Oc4c(C)c(C)c(C(=O)O)c(OC)c4C)c(OC)c3C)c(C)c2OC)c(C)c(C)c1C(=O)O
Descending sort on pIC50 required. List each label, following the requested order.
Q, S, P, R

* * *

Target: Phospholipase A2 (Homo sapiens)
Assay: In vitro inhibition of human recombinant secretory Phospholipase A2 (group I).
property.label: IC50 (µM)

COc1ccc(Sc2ccc(OC)c(C(=O)Oc3c(C)c(C)c(C(=O)Oc4c(C)c(C)c(C(=O)O)c(OC)c4C)c(OC)c3C)c2)cc1C(=O)Oc1c(C)c(C)c(C(=O)Oc2c(C)c(C)c(C(=O)O)c(OC)c2C)c(OC)c1C: 55

1 = COc1c(C)c(OC(=O)c2c(C)c(C)c(OC(=O)c3c(C)c(CN[C@@H](C)c4ccccc4)c(O)c(C)c3O)c(C)c2OC)c(C)c(C)c1C(=O)O
2 = COc1c(C)c(OC)c(C(=O)Oc2c(C)c(C)c(C(=O)O)c(OC)c2C)c(C)c1Cc1c(C)c(C(=O)Oc2c(C)c(C)c(C(=O)O)c(OC)c2C)c(OC)c(C)c1OC
Please indicate which item has the smaller measured IC50: 1 versus 2 # reply format: chosen label
1
